Molecular target: EPHA4 (human)
Assay: radiometric filter-binding kinase assay
Settings: compound 0.1 µM
recorded.endpoint: residual activity (%)
Supply the numeric figure in %, leaving out any unit text.

Sample records with residual activity:
Query: // fetch residual activity for COc1ccc(N(C(=O)Nc2c(C)cccc2C)c2cc(Nc3ccc(N4CCN(C)CC4)cc3)ncn2)c(OC)c1 ; system: EPHA4 (human)
Response: 12

Query: // fetch residual activity for O=C(Nc1nc2cc(C(F)(F)F)cc(NC3CC3)n2n1)c1cccnc1 ; system: EPHA4 (human)
Response: 124

Query: // fetch residual activity for COc1cc(O)c2c(c1)/C=C/C[C@H](O)[C@H](O)C(=O)/C=C\C[C@H](C)OC2=O ; system: EPHA4 (human)
Response: 91

Query: // fetch residual activity for NC(=O)c1cc2c(-c3cccc(-c4ccccc4)c3)cnc(N)c2s1 ; system: EPHA4 (human)
Response: 93

Query: // fetch residual activity for NC(=O)c1cc(-c2ccnc(NC3CCCCC3)c2)nc(N2CCNCC2)c1 ; system: EPHA4 (human)
Response: 90

***
Query: // fetch residual activity for CN1CCN(CCOc2cc(OC3CCOCC3)c3c(Nc4c(Cl)ccc5c4OCO5)ncnc3c2)CC1 ; system: EPHA4 (human)
Response: 49

Query: // fetch residual activity for COc1ccc(-n2ncc3cnc(Nc4cc(OC)c(OC)c(OCCCN5CCN(C)CC5)c4)nc32)cc1 ; system: EPHA4 (human)
Response: 14

Query: // fetch residual activity for Cc1ccc(-c2ccc3c(ccc4sc5c(c43)NC[C@@H](C)NC5=O)n2)cn1 ; system: EPHA4 (human)
Response: 99

Query: // fetch residual activity for CCCCCc1ccc(/C=C/[C@H](O)[C@@H](CO)NC)cc1 ; system: EPHA4 (human)
Response: 100

Query: // fetch residual activity for COc1cc(O)c2c(c1)[C@H]1OC1C[C@H](O)[C@H](O)C(=O)/C=C\C[C@H](C)OC2=O (some centres not stated) ; system: EPHA4 (human)
Response: 122

Query: // fetch residual activity for Cc1cc(NC(=O)c2cccc(NC(=O)/C=C/CN(C)C)c2)ccc1Nc1nccc(-c2cccnc2)n1 ; system: EPHA4 (human)
Response: 87

Query: // fetch residual activity for O=C(N[C@@H](COc1ccc2[nH]c(=O)[nH]c2c1)c1ccccc1)c1cccn(Cc2ccc(F)c(F)c2)c1=O ; system: EPHA4 (human)
Response: 95
